MEASURED_ON: human type 1 glycine transporter (GlyT1) (Homo sapiens, UniProt P48067)
Construct: T98G cells (glioma cells) expressing human type 1 glycine transporter (GlyT1) were used
ASSAY_REMARKS: Glycine uptake inhibition experiment ([3H]glycine uptake)
Assay type: cell-based
MEASUREMENT_SETUP: GlyT1
QUANTITY_KIND: IC50 (nM)

The following compounds have reported results that may help.
CCn1cc(-c2cccc(C(NC(=O)c3c(Cl)cccc3Cl)C3(O)CCC(F)(F)CC3)c2)cn1 (stereo not shown) [Compound 174]; 1100
CC(C)n1cc(-c2cccc(C(NC(=O)c3nccc(C(F)(F)F)c3Cl)C3(O)CCC(F)(F)CC3)c2)cn1 (stereo not shown) [Compound 129]; 99
CCn1cc(-c2cccc(C(NC(=O)c3cccc(C)c3Cl)C3(O)CCC(F)(F)CC3)c2)cn1 (stereo not shown) [Compound 126]; 720
O=C(NC(c1cc(Cl)cc(Cl)c1)C1(O)CCCC1)c1nccc(C(F)(F)F)c1Cl (stereo not shown) [Compound 111]; 220
O=C(N[C@@H](c1cccc(Cl)c1)[C@]1(O)CC[C@@H](F)CC1)c1ccnc(C(F)(F)F)c1Cl [Compound 186]; 150

[a] CS(=O)(=O)c1ccc(Cl)cc1C(=O)NC(c1cccc(F)c1Cl)[C@]1(O)CC[C@@H](F)CC1 (single isomer, unassigned) [Compound 364]
[b] O=C(NC(c1cccc(F)c1Cl)[C@]1(O)CC[C@@H](F)CC1)c1ncc(Cl)cc1C(F)(F)F (single isomer, unassigned) [Compound 316]
// returns a or b , whichever has the lower IC50 Indicate your choice by writing its label.
a

====

MEASURED_ON: human type 1 glycine transporter (GlyT1) (Homo sapiens)
Construct: T98G cells (glioma cells) expressing human type 1 glycine transporter (GlyT1) were used
Sequence (P48067 1-706): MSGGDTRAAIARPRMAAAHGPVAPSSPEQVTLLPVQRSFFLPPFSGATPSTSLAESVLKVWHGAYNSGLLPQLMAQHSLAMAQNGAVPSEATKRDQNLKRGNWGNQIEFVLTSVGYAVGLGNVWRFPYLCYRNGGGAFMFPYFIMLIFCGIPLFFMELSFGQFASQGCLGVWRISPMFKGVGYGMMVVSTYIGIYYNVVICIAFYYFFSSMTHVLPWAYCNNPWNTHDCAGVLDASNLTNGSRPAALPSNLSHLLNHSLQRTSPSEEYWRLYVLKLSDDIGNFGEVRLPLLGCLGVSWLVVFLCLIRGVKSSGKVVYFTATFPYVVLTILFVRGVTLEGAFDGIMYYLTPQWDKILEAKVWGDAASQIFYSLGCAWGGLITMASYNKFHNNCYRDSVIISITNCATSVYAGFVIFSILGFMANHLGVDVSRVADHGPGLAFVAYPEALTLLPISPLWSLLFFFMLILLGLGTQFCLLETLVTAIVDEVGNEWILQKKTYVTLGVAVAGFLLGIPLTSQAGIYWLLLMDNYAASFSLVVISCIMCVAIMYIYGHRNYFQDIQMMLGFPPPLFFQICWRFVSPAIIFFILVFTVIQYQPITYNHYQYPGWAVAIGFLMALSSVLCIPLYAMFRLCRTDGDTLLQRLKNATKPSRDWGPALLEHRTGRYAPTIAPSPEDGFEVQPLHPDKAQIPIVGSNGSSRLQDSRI
ASSAY_REMARKS: Glycine uptake inhibition experiment ([3H]glycine uptake)
Type: cell-based
MEASUREMENT_SETUP: GlyT1
QUANTITY_KIND: IC50 (nM)

O=C(NC(c1cccc(F)c1)C1(O)CCCC1)c1nccc(C(F)(F)F)c1Cl (single isomer, unassigned) [Compound 52]; 100
Cc1ccc(C(NC(=O)c2nccc(C(F)(F)F)c2Cl)C2(O)CCCC2)cc1 (centres unmarked); 3800
O=C(NC(c1cc(Cl)ccn1)C1(O)CCC(F)(F)CC1)c1nccc2ccccc12 (single isomer, unassigned); 1100

[P] O=C(NC(c1cccc(-c2ccccn2)c1)C1(O)CCC(F)(F)CC1)c1cc(C(F)(F)F)ccc1Cl (single isomer, unassigned)
[Q] O=C(N[C@@H](c1cccc(Br)c1)C1(O)CCCC1)c1cccc(C(F)(F)F)c1Cl
[R] O=C(NC(c1cccc(Cl)n1)C1(O)CCCCC1)c1nccc(C(F)(F)F)c1Cl (single isomer, unassigned)
[S] CN(C(=O)c1nccc(C(F)(F)F)c1Cl)C(c1cccc(F)c1Cl)[C@]1(O)CC[C@@H](F)CC1 (single isomer, unassigned)
[T] O=C(NC(c1cccnc1Cl)C1(O)CCC(F)(F)CC1)c1cc(C(F)(F)F)ncc1Cl (single isomer, unassigned)
Put the items in order so that reported IC50 rises from first to last. # output: labels, in the requested order
R, Q, P, S, T

====

MEASURED_ON: human type 1 glycine transporter (GlyT1) (Homo sapiens, UniProt P48067)
Construct: T98G cells (glioma cells) expressing human type 1 glycine transporter (GlyT1) were used
Sequence (P48067 1-706): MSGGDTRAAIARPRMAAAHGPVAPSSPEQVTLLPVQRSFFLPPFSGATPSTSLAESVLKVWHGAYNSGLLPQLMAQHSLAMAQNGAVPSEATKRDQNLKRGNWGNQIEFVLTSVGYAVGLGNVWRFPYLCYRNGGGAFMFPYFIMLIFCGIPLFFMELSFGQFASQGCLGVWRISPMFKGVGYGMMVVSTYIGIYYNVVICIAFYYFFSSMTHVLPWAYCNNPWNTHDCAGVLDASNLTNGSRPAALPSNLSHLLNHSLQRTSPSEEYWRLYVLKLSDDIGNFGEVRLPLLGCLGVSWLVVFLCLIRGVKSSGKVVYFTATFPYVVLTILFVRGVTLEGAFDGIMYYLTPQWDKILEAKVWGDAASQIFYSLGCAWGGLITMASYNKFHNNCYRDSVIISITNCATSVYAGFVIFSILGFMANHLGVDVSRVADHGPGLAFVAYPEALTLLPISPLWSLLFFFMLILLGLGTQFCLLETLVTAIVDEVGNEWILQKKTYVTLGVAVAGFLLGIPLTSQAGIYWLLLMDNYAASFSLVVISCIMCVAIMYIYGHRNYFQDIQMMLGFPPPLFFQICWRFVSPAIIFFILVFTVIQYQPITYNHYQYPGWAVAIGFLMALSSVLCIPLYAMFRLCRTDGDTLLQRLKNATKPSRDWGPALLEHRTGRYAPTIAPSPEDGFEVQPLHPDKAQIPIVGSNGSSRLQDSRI
ASSAY_REMARKS: Glycine uptake inhibition experiment ([3H]glycine uptake)
Type: cell-based
MEASUREMENT_SETUP: GlyT1
pIC50: −log10 of the molar value.
QUANTITY_KIND: pIC50

O=C(NC(c1ccccc1F)C1(O)CCCC1)c1nccc(C(F)(F)F)c1Cl (centres unmarked) [Compound 41]; 6.74
O=C(NC(c1cccnc1Cl)[C@]1(O)CC[C@@H](F)CC1)c1nccc2ccccc12 (single isomer, unassigned); 5.96
O=C(NC(c1cccc(Cl)c1)C1(O)CCC(O)C1)c1nccc(C(F)(F)F)c1Cl (centres unmarked); 5.96
O=C(NC(c1cccc(Br)c1)C1(O)CCC(F)CC1)c1nccc(C(F)(F)F)c1Cl (centres unmarked); 6.60
COc1cccc(Cl)c1C(=O)NC(c1cccc(F)c1Cl)[C@]1(O)CC[C@@H](F)CC1 (single isomer, unassigned); 5.92

[1] O=C(NC(c1cccc(F)c1Cl)[C@]1(O)CC[C@@H](F)CC1)c1ncc(Cl)cc1-n1nccn1 (single isomer, unassigned)
[2] O=C(NC(c1ccccc1)[C@]1(O)CC[C@@H](F)CC1)c1nccc(C(F)(F)F)c1Cl (single isomer, unassigned) [Compound 238]
[3] O=C(NC(c1cccc(F)c1F)C1(O)CCC(F)(F)CC1)c1nccc(C(F)(F)F)c1Cl (single isomer, unassigned)
[4] O=C(NC(c1ccccc1Cl)[C@]1(O)CC[C@@H](F)CC1)c1nccc(C(F)(F)F)c1Cl (single isomer, unassigned) [Compound 210]
[5] O=C(N[C@H](c1cccc(Br)c1)C1(O)CCCC1)c1nccc(C(F)(F)F)c1Cl
Order the items by recorded pIC50; the first position goes to the largest value. # output: labels, in the requested order
3, 2, 5, 1, 4

====

MEASURED_ON: human type 1 glycine transporter (GlyT1) (Homo sapiens, UniProt P48067)
Construct: T98G cells (glioma cells) expressing human type 1 glycine transporter (GlyT1) were used
ASSAY_REMARKS: Glycine uptake inhibition experiment ([3H]glycine uptake)
Format: cell-based
MEASUREMENT_SETUP: GlyT1
pIC50: −log10 of the molar value.
QUANTITY_KIND: pIC50

The following compounds have reported results that may help.
Cc1nc2ccccn2c1C(=O)NC(c1cccc(F)c1Cl)[C@]1(O)CC[C@@H](F)CC1 (single isomer, unassigned); 5.13
O=C(NC(c1cccnc1Cl)C1(O)CCC(F)(F)CC1)c1nccc(C(F)(F)F)c1Cl (single isomer, unassigned); 6.49
Cc1cccc(C)c1C(=O)NC(c1ccccc1)C1(O)CCCC1 (centres unmarked); 5.19

[1] O=C(NC(c1cccc(Br)c1)C1(O)CCCCC1)c1nccc(C(F)(F)F)c1Cl (single isomer, unassigned) [Compound 43]
[2] COc1cccc(C(NC(=O)c2nccc(C(F)(F)F)c2Cl)C2(O)CCCC2)c1 (single isomer, unassigned) [Compound 57]
[3] O=C(NC(c1ccc(F)c(Cl)c1)C1(O)CCCC1)c1nccc(C(F)(F)F)c1Cl (single isomer, unassigned) [Compound 97]
[4] CS(=O)(=O)c1ccc(C(F)(F)F)cc1C(=O)NC(c1cccc(F)c1Cl)[C@]1(O)CC[C@@H](F)CC1 (single isomer, unassigned)
[5] CCn1cc(-c2cccc(C(NC(=O)c3c(C)cccc3C)C3(O)CCC(F)(F)CC3)c2)cn1 (centres unmarked)
Put the items in order so that reported pIC50 rises from first to last. # output: labels, in the requested order
1, 5, 3, 2, 4

All figures here come from patent US20160130278A1.
